Listed below: IC50 values for each entry.
- System Name: 5-lipoxygenase (Mus musculus, UniProt P48999)
- Construct: The supernatant is used as a 5-lipogenase enzyme solution; endogenous in cells
- Test: 5-Lipoxygenase-inhibiting Activity (decrease in 5-HETE and LTB4 formed from radiolabelled arachidonic acid, enzyme solution from mouse mastcytoma cells P-815)
- Format: biochemical
- Protocol Conditions: 5-HETE and LTB4 formation; mouse mastcytoma P-815 enzyme solution; 37° C., 5 min; pH 7.4; with indomethacin; read-out: 50% Inhibitory concentration IC50
Experimental Endpoint: IC50 (µM)

[[record]]
molecule = "COc1cc(/C=C/C=C/C(=O)N2CCN(CCCCn3cnc4c3c(=O)n(C)c(=O)n4C)CC2)cc(OC)c1O"
experimental_result = 1

[[record]]
molecule = "COc1cc(/C=C/C=C/C(=O)NCCOC(c2ccccc2)c2ccccc2)ccc1O"
experimental_result = 0.06

[[record]]
molecule = "CC(OCCCN1CCN(C(=O)/C=C/c2ccc(O)c(O)c2)CC1)(c1ccccc1)c1ccc(Cl)cc1 (stereo not shown)"
experimental_result = 0.01

[[record]]
molecule = "COc1ccc(/C=C/C=C/C(=O)NCCCN2CCN(C(c3ccccc3)c3ccccc3)CC2)cc1OC"
experimental_result = 4


---

- System Name: 5-lipoxygenase (Mus musculus)
- Construct: The supernatant is used as a 5-lipogenase enzyme solution; endogenous in cells
- Test: 5-Lipoxygenase-inhibiting Activity (decrease in 5-HETE and LTB4 formed from radiolabelled arachidonic acid, enzyme solution from mouse mastcytoma cells P-815)
- Format: biochemical
- Protocol Conditions: 5-HETE and LTB4 formation; mouse mastcytoma P-815 enzyme solution; 37° C., 5 min; pH 7.4; with indomethacin; read-out: 50% Inhibitory concentration IC50
pIC50: −log10 of the molar value.
# label = MET if pIC50 >= 7 else NOT MET

[[record]]
compound = "COc1cc(/C=C/C(=O)N2CCN(CCCOC(c3ccccc3)c3ccccc3)CC2)ccc1O"
class_label = "NOT MET"

[[record]]
compound = "O=C(/C=C/C=C/c1ccc(O)c(O)c1)NCCCCN1CCN(C(c2ccccc2)c2ccccc2)CC1"
class_label = "MET"

[[record]]
compound = "COc1cc(/C=C/C(=O)N2CCN(CCn3cnc4c3c(=O)n(C)c(=O)n4C)CC2)ccc1O"
class_label = "NOT MET"

[[record]]
compound = "COc1cc(/C=C/C=C/C(=O)N2CCN(CCOC(C)(c3ccccc3)c3ccc(Cl)cc3)CC2)cc(OC)c1O (centres unmarked)"
class_label = "MET"

[[record]]
compound = "COc1ccc(/C=C/C(=O)NCCn2cnc3c2c(=O)n(C)c(=O)n3C)cc1OC"
class_label = "NOT MET"

[[record]]
compound = "COc1cc(/C=C/C=C/C(=O)NCCOC(c2ccccc2)c2ccccc2)cc(OC)c1O"
class_label = "MET"

[[record]]
compound = "COc1cc(/C=C/C=C/C(=O)NCc2c(CO)cnc(C)c2O)cc(OC)c1O"
class_label = "NOT MET"

[[record]]
compound = "COc1cc(/C=C/C=C/C(=O)NCc2c(COC(=O)c3ccc(C)cc3)cnc(C)c2O)ccc1O"
class_label = "NOT MET"

[[record]]
compound = "COc1cc(/C=C/C=C/C(=O)NCCN2CCC(OC(c3ccccc3)c3ccccc3)CC2)ccc1O"
class_label = "MET"

[[record]]
compound = "COc1cc(/C=C/C(=O)N2CCN(CCCOC(c3ccccc3)c3ccccc3)CC2)cc(OC)c1O"
class_label = "MET"

[[record]]
compound = "COc1cc(/C=C/C=C/C(=O)N2CCN(CCCOC(C)(c3ccccc3)c3ccc(Cl)cc3)CC2)ccc1O (centres unmarked)"
class_label = "MET"

[[record]]
compound = "COc1ccc(/C=C/C(=O)NCCCCN2CCN(C(c3ccccc3)c3ccccc3)CC2)cc1OC"
class_label = "NOT MET"

[[record]]
compound = "Cn1c(=O)c2c(ncn2CCCCN2CCN(C(=O)/C=C/c3ccc(O)c(O)c3)CC2)n(C)c1=O"
class_label = "NOT MET"

[[record]]
compound = "CC(=O)NCCCCNC(=O)/C=C/C=C/c1ccc(O)c(O)c1"
class_label = "NOT MET"

[[record]]
compound = "O=C(/C=C/C=C/c1ccc2c(c1)OCO2)NCCN1CCN(C(c2ccccc2)c2ccccc2)CC1"
class_label = "NOT MET"

[[record]]
compound = "COc1cc(/C=C/C=C/C(=O)NCCN2CCN(C(=O)c3ccccc3N)CC2)ccc1O"
class_label = "NOT MET"


---

- System Name: 5-lipoxygenase (Mus musculus)
- Construct: The supernatant is used as a 5-lipogenase enzyme solution; endogenous in cells
- Sequence (P48999 1-674): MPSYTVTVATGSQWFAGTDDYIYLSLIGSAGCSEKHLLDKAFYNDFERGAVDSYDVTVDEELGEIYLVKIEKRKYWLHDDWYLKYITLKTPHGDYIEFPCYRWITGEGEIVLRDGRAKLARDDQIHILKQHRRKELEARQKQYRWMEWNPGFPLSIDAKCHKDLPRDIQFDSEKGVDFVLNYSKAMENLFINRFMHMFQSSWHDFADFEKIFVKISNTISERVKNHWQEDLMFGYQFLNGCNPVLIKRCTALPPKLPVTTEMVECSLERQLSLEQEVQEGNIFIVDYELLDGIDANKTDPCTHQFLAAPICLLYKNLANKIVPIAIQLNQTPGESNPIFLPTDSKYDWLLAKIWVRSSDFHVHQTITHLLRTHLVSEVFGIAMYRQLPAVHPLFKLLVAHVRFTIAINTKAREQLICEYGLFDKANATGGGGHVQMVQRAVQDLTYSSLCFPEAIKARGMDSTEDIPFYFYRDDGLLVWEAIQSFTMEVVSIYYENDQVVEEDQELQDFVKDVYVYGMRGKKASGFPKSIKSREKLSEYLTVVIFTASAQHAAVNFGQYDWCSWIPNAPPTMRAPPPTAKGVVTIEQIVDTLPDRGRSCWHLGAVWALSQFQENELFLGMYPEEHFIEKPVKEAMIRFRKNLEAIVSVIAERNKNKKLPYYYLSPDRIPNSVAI
- Test: 5-Lipoxygenase-inhibiting Activity (decrease in 5-HETE and LTB4 formed from radiolabelled arachidonic acid, enzyme solution from mouse mastcytoma cells P-815)
- Type: biochemical
- Protocol Conditions: 5-HETE and LTB4 formation; mouse mastcytoma P-815 enzyme solution; 37° C., 5 min; pH 7.4; with indomethacin; read-out: 50% Inhibitory concentration IC50
pIC50: −log10 of the molar value.
Experimental Endpoint: pIC50

[[record]]
molecule = "COc1cc(/C=C/C(=O)NCCN2CCN(C(c3ccccc3)c3ccccc3)CC2)cc(OC)c1OC"
experimental_result = 5.00

[[record]]
molecule = "COc1cc(/C=C/C(=O)NCCN2CCN(C(c3ccccc3)c3ccc(Cl)cc3)CC2)ccc1O (centres unmarked)"
experimental_result = 6.30

[[record]]
molecule = "O=C(/C=C/C=C/c1ccc(O)c(O)c1)N1CCN(CCCOC(c2ccccc2)c2ccccc2)CC1"
experimental_result = 7.52

[[record]]
molecule = "COc1cc(/C=C/C=C/C(=O)NCCCN2CCC(OC(c3ccccc3)c3ccccc3)CC2)ccc1O"
experimental_result = 8.15

[[record]]
molecule = "COc1cc(/C=C/C(=O)NCCN2CCC(OC(c3ccccc3)c3ccccc3)CC2)ccc1O"
experimental_result = 6.40

[[record]]
molecule = "O=C(/C=C/c1ccc(O)c(O)c1)Nc1ccccc1O"
experimental_result = 7.40

[[record]]
molecule = "COc1cc(/C=C/C=C/C(=O)NCCN2CCC(OC(c3ccccc3)c3ccccc3)CC2)cc(OC)c1O"
experimental_result = 8.00

[[record]]
molecule = "COc1cc(/C=C/C=C/C(=O)NCCN2CCN(C(c3ccccc3)c3ccccc3)CC2)cc(OC)c1OC"
experimental_result = 5.70

